Assay: Quantitative High-Throughput drug screen in 47 multiple myeloma cell lines against the NCATS MIPE library collection: OCIMY5_PLB cell viability assay (AID 1918988); note: nearly all actives have a fitted effect of over 65% in size
Conditions: OCI-MY5 myeloma viability, ATP luminescence, 48 h; series mostly up to 45.8 µM
Inconclusive results are not listed. The source made the active and inactive calls. Calls come from the whole dose curve; as a rule, active = well fitted cell-killing curve with a large enough effect; inconclusive = small, poorly fitted or top-dose-only effect, or effect the other way; inactive = no such curve, though single readings can be large or run the other way.
Just give me one of these, please: active, inactive

See these solved cases before continuing.
What outcome does the record of this test show for `N=C(N)c1ccc2cc(OC(=O)c3ccc(N=C(N)N)cc3)ccc2c1` ?
active

What outcome does the record of this test show for `O=C(NCCO[N+](=O)[O-])c1cccnc1` ?
inactive

What outcome does the record of this test show for CC(S)C(=O)NCC(=O)O (stereo unspecified) ?
inactive

What outcome does the record of this test show for `Cc1cc(=O)oc2cc(O)ccc12` ?
inactive

What outcome does the record of this test show for `C[C@H](Cc1ccc(O)c(O)c1)[C@@H](C)Cc1ccc(O)c(O)c1` ?
active

Kindly review the next compound as well.
What outcome does the record of this test show for `Oc1ccc2ccccc2c1SSc1c(O)ccc2ccccc12` ?
active

----------
Test: Drug repurposing screens with cells derived from glioblastoma tumor samples (AID 1345199); note: % is set by controls: 0 for no effect and ±100 for the full control effect; nearly all actives have a fitted effect of over 40% in size
Conditions: GBM patient neurospheres viability, ATP luminescence, 48 h; at 20 µM (top of the series); tumour line C
Results filed as inconclusive are left out.
The following molecules are shown together with reported activity, negative = cell killing values.
Report only the number, with the unit % understood.

What does the data say about its activity, negative = cell killing? Entry: `Oc1ccc(OCc2ccccc2)cc1`
4.55

What does the data say about its activity, negative = cell killing? Entry: O=C(c1ccccc1)c1ccc2n1CCC2C(=O)O (stereo not given)
0.506

What does the data say about its activity, negative = cell killing? Entry: `COc1ccc2cc([C@H](C)C(=O)O)ccc2c1`
-12.8

What does the data say about its activity, negative = cell killing? Entry: CCCCN(CCCC)CCC(O)c1cc2c(Cl)cc(Cl)cc2c2cc(C(F)(F)F)ccc12 (stereo not given)
-14

Now for a further molecule.
What does the data say about its activity, negative = cell killing? Entry: `Cc1cc(=O)oc2cc(O)ccc12`
-8.91

----------
Assay: qHTS Screen of the MIPE 4.0 Collection Against Ewings Sarcoma (RDES) (AID 1259252); note: nearly all actives have a fitted effect of over 35% in size
Conditions: RD-ES Ewing sarcoma viability, CellTiter-Glo, 48 h; series mostly up to 45.8 µM
Inconclusive results are not listed. The source made the active and inactive calls. Calls follow the shape of the dose curve; as a rule, active = well fitted inhibition curve with a large enough effect; inconclusive = small, poorly fitted or top-dose-only effect; inactive = no such curve, though single readings can be large or run the other way.
Just give me one of these, please: True (active), False (inactive)

What outcome does the record of this test show for `Nc1nc(Cl)nc2c1ncn2[C@H]1C[C@H](O)[C@@H](CO)O1` ?
True

What outcome does the record of this test show for `COC(=O)N[C@H](C(=O)N[C@@H](Cc1ccccc1)[C@@H](O)CN(Cc1ccc(-c2ccccn2)cc1)NC(=O)[C@@H](NC(=O)OC)C(C)(C)C)C(C)(C)C` ?
False

What outcome does the record of this test show for `O=c1oc2cc(O)ccc2s1` ?
True

What outcome does the record of this test show for `O=C(O)c1cc(=O)c2c(OCC(O)COc3cccc4oc(C(=O)O)cc(=O)c34)cccc2o1` ?
False

What outcome does the record of this test show for `O=c1c(O)c(-c2cc(O)c(O)c(O)c2)oc2cc(O)cc(O)c12` ?
True

What outcome does the record of this test show for `COc1ccccc1N1CCN(CCN(C(=O)C2CCCCC2)c2ccccn2)CC1` ?
False

What outcome does the record of this test show for `COc1cc2c(N3CCN(C(=O)Nc4ccc(OC(C)C)cc4)CC3)ncnc2cc1OCCCN1CCCCC1` ?
True
